Origin of the recorded values: patent US10239825B2

- Test system: adult female Sprague-Dawley rats
- assay explanation: rat infusion study: loss/recovery of righting reflex and walk (anaesthetic effect)
- Type: in vivo
- condition set: ratio compound/ketamine
Label fulfilled when LRR Dose, head-to-head ratio to ketamine is strictly below 2; otherwise label not fulfilled.

Challenge: Dear colleague, could you confirm whether LRR Dose, head-to-head ratio to ketamine of CC(C)OC(=O)CCCNC1(c2ccccc2Cl)CCCCC1=O.Cl (racemic) [rac-C3iPr] falls below 2? Thanks.
Response given: fulfilled

Challenge: Dear colleague, could you confirm whether LRR Dose, head-to-head ratio to ketamine of CCOC(=O)CCN(C)C1(c2ccccc2Cl)CCCCC1=O (stereo not drawn) [compound 19] falls below 2? Thanks.
Response given: not fulfilled

Challenge: Dear colleague, could you confirm whether LRR Dose, head-to-head ratio to ketamine of CCOC(=O)CCNC1(c2ccccc2Cl)CCCCC1=O.Cl (racemic) [rac-C2Et] falls below 2? Thanks.
Response given: fulfilled

Challenge: Dear colleague, could you confirm whether LRR Dose, head-to-head ratio to ketamine of CC(=O)OCCCN[C@]1(c2ccccc2Cl)CCCCC1=O.Cl [(S)-C3OAc] falls below 2? Thanks.
Response given: fulfilled

Challenge: Dear colleague, could you confirm whether LRR Dose, head-to-head ratio to ketamine of CCCOC(=O)CCNC1(c2ccccc2Cl)CCCCC1=O.Cl (racemic) [rac-C2nPr] falls below 2? Thanks.
Response given: not fulfilled

Challenge: Dear colleague, could you confirm whether LRR Dose, head-to-head ratio to ketamine of CC(C)OC(=O)CCN[C@]1(c2ccccc2Cl)CCCCC1=O.Cl [(S)-C2iPr] falls below 2? Thanks.
Response given: not fulfilled

Challenge: Dear colleague, could you confirm whether LRR Dose, head-to-head ratio to ketamine of CC(C)OC(=O)CCNC1(c2ccccc2Cl)CCCCC1=O.Cl (racemic) [rac-C2iPr] falls below 2? Thanks.
Response given: fulfilled

Challenge: Dear colleague, could you confirm whether LRR Dose, head-to-head ratio to ketamine of CC(C)OC(=O)CCN[C@@]1(c2ccccc2Cl)CCCCC1=O.Cl [(R)-C2iPr] falls below 2? Thanks.
Response given: not fulfilled

Challenge: Dear colleague, could you confirm whether LRR Dose, head-to-head ratio to ketamine of CCOC(=O)CCCNC1(c2ccccc2Cl)CCCCC1=O.Cl (racemic) [rac-C3Et] falls below 2? Thanks.
Response given: fulfilled

Challenge: Dear colleague, could you confirm whether LRR Dose, head-to-head ratio to ketamine of CCCOC(=O)CCCNC1(c2ccccc2Cl)CCCCC1=O.Cl (racemic) [rac-C3nPr] falls below 2? Thanks.
Response given: not fulfilled

Challenge: Dear colleague, could you confirm whether LRR Dose, head-to-head ratio to ketamine of COC(=O)CCCCN[C@]1(c2ccccc2Cl)CCCCC1=O.Cl [(S)-C4Me] falls below 2? Thanks.
Response given: fulfilled

Challenge: Dear colleague, could you confirm whether LRR Dose, head-to-head ratio to ketamine of COC(=O)CCCCN(C)C1(c2ccccc2Cl)CCCCC1=O (stereo not drawn) [compound 21] falls below 2? Thanks.
Response given: not fulfilled

Challenge: Dear colleague, could you confirm whether LRR Dose, head-to-head ratio to ketamine of COC(=O)CCCCNC1(c2ccccc2Cl)CCCCC1=O.Cl (racemic) [rac-C4Me] falls below 2? Thanks.
Response given: fulfilled

Challenge: Dear colleague, could you confirm whether LRR Dose, head-to-head ratio to ketamine of CCCOC(=O)CCCCNC1(c2ccccc2Cl)CCCCC1=O.Cl (racemic) [rac-C4nPr] falls below 2? Thanks.
Response given: not fulfilled

Challenge: Dear colleague, could you confirm whether LRR Dose, head-to-head ratio to ketamine of CCOC(=O)CCN[C@]1(c2ccccc2Cl)CCCCC1=O.Cl [(S)-C2Et] falls below 2? Thanks.
Response given: not fulfilled

Challenge: Dear colleague, could you confirm whether LRR Dose, head-to-head ratio to ketamine of CCOC(=O)CCCN(C)C1(c2ccccc2Cl)CCCCC1=O.Cl (stereo not drawn) [compound 20] falls below 2? Thanks.
Response given: not fulfilled
